Below: a set of entries, each annotated with reported IC50, pseudovirus neutralization (TZM-bl).
# assay system: HIV-1 Env of isolate DU422 (HIV-1)
# experiment: cell-based or functional assay
assay endpoint: IC50, pseudovirus neutralization (TZM-bl) (µg/mL)

binder	quantitative readout
1469_M23 (PG16) (TCN-118) (antibody, V domains shown) VH: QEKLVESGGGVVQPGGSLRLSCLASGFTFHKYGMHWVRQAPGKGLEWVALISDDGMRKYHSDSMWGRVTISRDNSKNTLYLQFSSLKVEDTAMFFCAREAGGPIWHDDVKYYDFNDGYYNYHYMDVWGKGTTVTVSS VL: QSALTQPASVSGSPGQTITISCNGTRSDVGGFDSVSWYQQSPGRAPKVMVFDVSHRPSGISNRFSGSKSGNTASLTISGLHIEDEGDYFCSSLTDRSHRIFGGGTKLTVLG	0.97
1456_A12 (PG16) (TCN-117) (antibody, V domains shown) VH: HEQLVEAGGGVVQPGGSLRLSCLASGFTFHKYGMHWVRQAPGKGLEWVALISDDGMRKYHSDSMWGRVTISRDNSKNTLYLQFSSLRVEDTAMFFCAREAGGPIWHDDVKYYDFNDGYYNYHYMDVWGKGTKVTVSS VL: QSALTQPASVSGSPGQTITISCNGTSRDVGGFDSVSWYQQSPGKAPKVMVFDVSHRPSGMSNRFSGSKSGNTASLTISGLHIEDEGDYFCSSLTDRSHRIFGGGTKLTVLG	0.36
1489_I13 (PG16) (TCN-120) (antibody, V domains shown) VH: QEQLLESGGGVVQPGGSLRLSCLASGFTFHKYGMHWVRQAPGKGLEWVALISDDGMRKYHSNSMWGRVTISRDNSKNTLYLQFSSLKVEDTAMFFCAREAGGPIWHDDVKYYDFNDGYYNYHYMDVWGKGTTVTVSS VL: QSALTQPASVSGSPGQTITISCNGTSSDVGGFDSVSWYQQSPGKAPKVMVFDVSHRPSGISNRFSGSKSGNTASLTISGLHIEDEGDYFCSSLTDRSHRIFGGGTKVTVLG	1.87
1503_H05 (PG16) (TCN-119) (antibody, V domains shown) VH: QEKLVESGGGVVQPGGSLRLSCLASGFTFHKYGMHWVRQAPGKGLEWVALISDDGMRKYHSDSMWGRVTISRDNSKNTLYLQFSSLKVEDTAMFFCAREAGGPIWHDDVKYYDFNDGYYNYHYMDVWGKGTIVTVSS VL: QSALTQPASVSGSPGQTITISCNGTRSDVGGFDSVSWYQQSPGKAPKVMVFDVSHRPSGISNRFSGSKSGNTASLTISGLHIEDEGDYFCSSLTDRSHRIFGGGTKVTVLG	0.71
